assay: Nec-1s plasma levels in rats by HPLC-Q-TOF after i.v. bolus; assay type: in vivo, male Wistar rats; conditions: male, Wistar, rat, plasma, iv, 0.37 mg/kg, individual rats N1-N5, 50 min after i.v. bolus dose 0.37 mg/kg, n = 3 analyses; read-out: Plasma Concentration
readout: concentration at 50 min (nM)
Only the number, expressed in nM, is required.

Field concentration at 50 min (entry CN1C(=O)NC(Cc2c[nH]c3c(Cl)cccc23)C1=O (stereo not shown) [Nec-1s] ) reads 374

---

assay: Nec-1s plasma levels in rats by HPLC-Q-TOF after i.v. bolus; assay type: in vivo, male Wistar rats; details: male, Wistar, rat, plasma, iv, 0.37 mg/kg, individual rats N1-N5, 50 min after i.v. bolus dose 0.37 mg/kg, n = 3 analyses; read-out: Plasma Concentration (ng/mL)
readout: concentration at 50 min (ng/mL)
Just the number in ng/mL, nothing appended.

Form field concentration at 50 min, entry CN1C(=O)NC(Cc2c[nH]c3c(Cl)cccc23)C1=O (stereo not shown) : 104

---

Experiment: Nec-1s plasma levels in rats by HPLC-Q-TOF after i.v. bolus
Format: in vivo, male Wistar rats
Conditions: male, Wistar, rat, plasma, iv, 0.37 mg/kg, 50 min after i.v. bolus dose 0.37 mg/kg, 5 male Wistar rats; read-out: plasma concentrations, range over 5 rats
Protocol: The developed and validated HPLC-Q-TOF method was applied for the determination of real plasma concentrations of Nec-1s in 5 male Wistar rats after i.v. administration of a bolus dose of Nec-1s (0.37 mg/kg). The samples taken from each subject were prepared and analyzed in triplicate. […] The measured data were consistent to each other with plasma concentrations in the range of 319.81–466.52 nM, and mean value of 377.26 nM. […]
readout: concentration at 50 min

Notebook: CN1C(=O)NC(Cc2c[nH]c3c(Cl)cccc23)C1=O (stereo not shown) , concentration at 50 min read as 320 to 467 nM
